System: Escherichia coli
method: Antimicrobial activity against Escherichia coli MTCC 739 assessed as diameter of growth zone inhibition by agar streak dilution method; further: test concentration or dose not given here
Format: functional
valueKind: diameter of the inhibition zone (DIZ)

[
  {
    "compound": "Cc1ccc(N2C(=O)C(Cl)C2c2cc3ccccc3nc2S)cc1 (stereo not drawn)",
    "valueKind": "diameter of the inhibition zone (DIZ)",
    "experimentalValue": "18 mm"
  },
  {
    "compound": "O=C1CSC(c2cc3ccccc3nc2S)N1c1ccc(Cl)cc1 (stereo not drawn)",
    "valueKind": "diameter of the inhibition zone (DIZ)",
    "experimentalValue": "23 mm"
  },
  {
    "compound": "O=C1CSC(c2cc3ccccc3nc2S)N1c1ccccc1Cl (stereo not drawn)",
    "valueKind": "diameter of the inhibition zone (DIZ)",
    "experimentalValue": "23 mm"
  },
  {
    "compound": "O=C1CSC(c2cc3ccccc3nc2S)N1c1ccc([N+](=O)[O-])cc1 (stereo not drawn)",
    "valueKind": "diameter of the inhibition zone (DIZ)",
    "experimentalValue": "23 mm"
  },
  {
    "compound": "O=C1C(Cl)C(c2cc3ccccc3nc2S)N1c1cccc(Cl)c1 (stereo not drawn)",
    "valueKind": "diameter of the inhibition zone (DIZ)",
    "experimentalValue": "22 mm"
  },
  {
    "compound": "Cc1cnc(N2C(=O)C(Cl)C2c2cc3ccccc3nc2S)s1 (stereo not drawn)",
    "valueKind": "diameter of the inhibition zone (DIZ)",
    "experimentalValue": "24 mm"
  },
  {
    "compound": "O=C1C(Cl)C(c2cc3ccccc3nc2S)N1c1ccccc1[N+](=O)[O-] (stereo not drawn)",
    "valueKind": "diameter of the inhibition zone (DIZ)",
    "experimentalValue": "21 mm"
  },
  {
    "compound": "O=C1CSC(c2cc3ccccc3nc2S)N1c1ccccc1 (stereo not drawn)",
    "valueKind": "diameter of the inhibition zone (DIZ)",
    "experimentalValue": "16 mm"
  },
  {
    "compound": "O=C(O)c1cn(C2CC2)c2cc(N3CCNCC3)c(F)cc2c1=O",
    "valueKind": "diameter of the inhibition zone (DIZ)",
    "experimentalValue": "32 mm"
  },
  {
    "compound": "Cc1ccc(N2C(=O)CSC2c2cc3ccccc3nc2S)cc1 (stereo not drawn)",
    "valueKind": "diameter of the inhibition zone (DIZ)",
    "experimentalValue": "19 mm"
  },
  {
    "compound": "O=C1C(Cl)C(c2cc3ccccc3nc2S)N1c1cccc([N+](=O)[O-])c1 (stereo not drawn)",
    "valueKind": "diameter of the inhibition zone (DIZ)",
    "experimentalValue": "22 mm"
  },
  {
    "compound": "O=C1C(Cl)C(c2cc3ccccc3nc2S)N1c1ccccc1Cl (stereo not drawn)",
    "valueKind": "diameter of the inhibition zone (DIZ)",
    "experimentalValue": "23 mm"
  },
  {
    "compound": "O=C1CSC(c2cc3ccccc3nc2S)N1c1cccc(Cl)c1 (stereo not drawn)",
    "valueKind": "diameter of the inhibition zone (DIZ)",
    "experimentalValue": "22 mm"
  }
]

----------
System: Staphylococcus aureus
method: Antimicrobial activity against Staphylococcus aureus MTCC 96 assessed as growth inhibition by agar streak dilution method
Format: functional
Reported MIC values for a set of molecules

[
  {
    "molecule": "Cc1ccccc1N1C(=O)C(Cl)C1c1cc2ccccc2nc1S (stereo not given)",
    "assayedSystem": "Staphylococcus aureus",
    "resultUnits": "µg/mL",
    "resultQualifier": "=",
    "MIC": 62.5
  },
  {
    "molecule": "Cc1cccc(N2C(=O)C(Cl)C2c2cc3ccccc3nc2S)c1 (stereo not given)",
    "assayedSystem": "Staphylococcus aureus",
    "resultUnits": "µg/mL",
    "resultQualifier": "=",
    "MIC": 100
  },
  {
    "molecule": "O=C1CSC(c2cc3ccccc3nc2S)N1c1cccc(Cl)c1 (stereo not given)",
    "assayedSystem": "Staphylococcus aureus",
    "resultUnits": "µg/mL",
    "resultQualifier": "=",
    "MIC": 6.25
  },
  {
    "molecule": "Cc1ccc(N2C(=O)C(Cl)C2c2cc3ccccc3nc2S)cc1 (stereo not given)",
    "assayedSystem": "Staphylococcus aureus",
    "resultUnits": "µg/mL",
    "resultQualifier": "=",
    "MIC": 100
  },
  {
    "molecule": "O=C1CSC(c2cc3ccccc3nc2S)N1c1ccccc1 (stereo not given)",
    "assayedSystem": "Staphylococcus aureus",
    "resultUnits": "µg/mL",
    "resultQualifier": "=",
    "MIC": 100
  },
  {
    "molecule": "O=C1C(Cl)C(c2cc3ccccc3nc2S)N1c1cccc([N+](=O)[O-])c1 (stereo not given)",
    "assayedSystem": "Staphylococcus aureus",
    "resultUnits": "µg/mL",
    "resultQualifier": "=",
    "MIC": 50
  },
  {
    "molecule": "O=C1CSC(c2cc3ccccc3nc2S)N1c1ccc([N+](=O)[O-])cc1 (stereo not given)",
    "assayedSystem": "Staphylococcus aureus",
    "resultUnits": "µg/mL",
    "resultQualifier": "=",
    "MIC": 12.5
  },
  {
    "molecule": "Cc1ccc(N2C(=O)CSC2c2cc3ccccc3nc2S)cc1 (stereo not given)",
    "assayedSystem": "Staphylococcus aureus",
    "resultUnits": "µg/mL",
    "resultQualifier": "=",
    "MIC": 100
  },
  {
    "molecule": "Cc1cccc(N2C(=O)CSC2c2cc3ccccc3nc2S)c1 (stereo not given)",
    "assayedSystem": "Staphylococcus aureus",
    "resultUnits": "µg/mL",
    "resultQualifier": "=",
    "MIC": 62.5
  },
  {
    "molecule": "O=C1C(Cl)C(c2cc3ccccc3nc2S)N1c1ccc([N+](=O)[O-])cc1 (stereo not given)",
    "assayedSystem": "Staphylococcus aureus",
    "resultUnits": "µg/mL",
    "resultQualifier": "=",
    "MIC": 50
  },
  {
    "molecule": "O=C(O)c1cn(C2CC2)c2cc(N3CCNCC3)c(F)cc2c1=O [CIPROFLOXACIN]",
    "assayedSystem": "Staphylococcus aureus",
    "resultUnits": "µg/mL",
    "resultQualifier": "≤",
    "MIC": 1
  },
  {
    "molecule": "O=C1CSC(c2cc3ccccc3nc2S)N1c1ccccc1[N+](=O)[O-] (stereo not given)",
    "assayedSystem": "Staphylococcus aureus",
    "resultUnits": "µg/mL",
    "resultQualifier": "=",
    "MIC": 62.5
  },
  {
    "molecule": "O=C1CSC(c2cc3ccccc3nc2S)N1c1cccc([N+](=O)[O-])c1 (stereo not given)",
    "assayedSystem": "Staphylococcus aureus",
    "resultUnits": "µg/mL",
    "resultQualifier": "=",
    "MIC": 50
  },
  {
    "molecule": "O=C1C(Cl)C(c2cc3ccccc3nc2S)N1c1cccc(Cl)c1 (stereo not given)",
    "assayedSystem": "Staphylococcus aureus",
    "resultUnits": "µg/mL",
    "resultQualifier": "=",
    "MIC": 12.5
  },
  {
    "molecule": "O=C1C(Cl)C(c2cc3ccccc3nc2S)N1c1ccccc1[N+](=O)[O-] (stereo not given)",
    "assayedSystem": "Staphylococcus aureus",
    "resultUnits": "µg/mL",
    "resultQualifier": "=",
    "MIC": 62.5
  },
  {
    "molecule": "O=C1CSC(c2cc3ccccc3nc2S)N1c1ccc(Cl)cc1 (stereo not given)",
    "assayedSystem": "Staphylococcus aureus",
    "resultUnits": "µg/mL",
    "resultQualifier": "=",
    "MIC": 6.25
  },
  {
    "molecule": "O=C1C(Cl)C(c2cc3ccccc3nc2S)N1c1ccccc1 (stereo not given)",
    "assayedSystem": "Staphylococcus aureus",
    "resultUnits": "µg/mL",
    "resultQualifier": "=",
    "MIC": 100
  },
  {
    "molecule": "Cc1ccccc1N1C(=O)CSC1c1cc2ccccc2nc1S (stereo not given)",
    "assayedSystem": "Staphylococcus aureus",
    "resultUnits": "µg/mL",
    "resultQualifier": "=",
    "MIC": 100
  },
  {
    "molecule": "Cc1cnc(N2C(=O)C(Cl)C2c2cc3ccccc3nc2S)s1 (stereo not given)",
    "assayedSystem": "Staphylococcus aureus",
    "resultUnits": "µg/mL",
    "resultQualifier": "=",
    "MIC": 25
  },
  {
    "molecule": "O=C1CSC(c2cc3ccccc3nc2S)N1c1ccc(F)cc1 (stereo not given)",
    "assayedSystem": "Staphylococcus aureus",
    "resultUnits": "µg/mL",
    "resultQualifier": "=",
    "MIC": 3.12
  },
  {
    "molecule": "O=C1C(Cl)C(c2cc3ccccc3nc2S)N1c1ccc(F)cc1 (stereo not given)",
    "assayedSystem": "Staphylococcus aureus",
    "resultUnits": "µg/mL",
    "resultQualifier": "=",
    "MIC": 6.25
  },
  {
    "molecule": "Cc1cnc(N2C(=O)CSC2c2cc3ccccc3nc2S)s1 (stereo not given)",
    "assayedSystem": "Staphylococcus aureus",
    "resultUnits": "µg/mL",
    "resultQualifier": "=",
    "MIC": 12.5
  },
  {
    "molecule": "O=C1CSC(c2cc3ccccc3nc2S)N1c1ccccc1Cl (stereo not given)",
    "assayedSystem": "Staphylococcus aureus",
    "resultUnits": "µg/mL",
    "resultQualifier": "=",
    "MIC": 6.25
  },
  {
    "molecule": "O=C1C(Cl)C(c2cc3ccccc3nc2S)N1c1ccccc1Cl (stereo not given)",
    "assayedSystem": "Staphylococcus aureus",
    "resultUnits": "µg/mL",
    "resultQualifier": "=",
    "MIC": 6.25
  },
  {
    "molecule": "O=C1C(Cl)C(c2cc3ccccc3nc2S)N1c1ccc(Cl)cc1 (stereo not given)",
    "assayedSystem": "Staphylococcus aureus",
    "resultUnits": "µg/mL",
    "resultQualifier": "=",
    "MIC": 6.25
  }
]

Ref: ChEMBL document CHEMBL3044671
